- Test system: RPMI-8226 leukemia
- Method: NCI tumour cell line growth inhibition, 48 h; in the data active means GI50 below about 0.43 µM; inactive means the rest
Your reply should match one of these outcome classes. active, inactive

>>> print(df.to_string())
                                 mol_smiles        study_system     class
0  O=c1[nH]ccc2nc(N3CCC(O)CC3)nc(Nc3ccc(N4CCOCC4)cc3)c12  RPMI-8226 leukemia  inactive
1     O=C(/C=C/c1ccccc1)Nc1ncc(Cc2ccccc2)s1  RPMI-8226 leukemia    active

Given COc1ccc2nc(-c3ccc(Cl)cc3)cc(-c3nnc(SCC(=O)Nc4ccc(/C(C)=N\O)cc4)o3)c2c1 , state the outcome it received in this test. inactive

Given COc1ccc(NC(=O)COc2ccccc2)c(C(N)=O)c1 , state the outcome it received in this test. inactive

Given COc1ccc2c(c1)C(=O)c1c-2n(CCCCl)c(=O)c2cc([N+](=O)[O-])ccc12 , state the outcome it received in this test. active
